- test target: human ANO6 (Homo sapiens, UniProt Q4KMQ2)
- Construct: expressed in transfected cells
- experimental details: LACT C2 assay (phosphatidylserine scramblase function assay)
- Type: cell-based
- details: test compound 1 μM, FRT cells expressing human ANO6, 10 μM ionomycin, read-out: Inhibition Level 1 μM
recorded metric: inhibition at 1 µM

{"chemical string": "CN1CCN(Cc2ccc(NC(=O)c3cccc(Nc4ncc(-c5cccc(F)c5)cn4)c3)cc2)CC1", "inhibition at 1 µM": "30 to 60%"}
{"chemical string": "O=C(NC1(CO)CC1)c1cccc(Nc2ccc(-c3cccc(F)c3)nn2)c1", "inhibition at 1 µM": "< 30%"}
{"chemical string": "O=C(NCCc1ccccc1)c1cccc(Nc2cnc(-c3ccccc3)cn2)c1", "inhibition at 1 µM": "≥ 60%"}
{"chemical string": "O=C(NCCCc1ccccc1)c1cccc(Nc2ccc(-c3ccccc3)cc2)c1", "inhibition at 1 µM": "≥ 60%"}
{"chemical string": "O=C(NCCC1CCCCC1)c1cccc(Nc2ncc(-c3cccc(F)c3)cn2)c1", "inhibition at 1 µM": "≥ 60%"}
{"chemical string": "CCN1CCN(c2cc(CNC(=O)c3cccc(Nc4ccc(-c5ccccc5)nn4)c3)ccc2F)CC1", "inhibition at 1 µM": "< 30%"}
{"chemical string": "CCC(CC)NC(=O)c1cccc(Nc2ccc(-c3ccccc3)nn2)c1", "inhibition at 1 µM": "< 30%"}

Please look at the following compound next.
The compound listed as O=C(N[C@@H]1C[C@H]1c1ccc(F)c(F)c1)c1cccc(Nc2ccc(-c3ccccc3)nn2)c1 shows inhibition at 1 µM equal to ≥ 60%

###

- test target: human ANO6 (Homo sapiens, UniProt Q4KMQ2)
- Construct: expressed in transfected cells
- experimental details: LACT C2 assay (phosphatidylserine scramblase function assay)
- Type: cell-based
- details: test compound 1 μM, FRT cells expressing human ANO6, 10 μM ionomycin, read-out: Inhibition Level 1 μM
recorded metric: inhibition at 1 µM

Known inhibition at 1 µM results, listed for orientation:
{"compound": "O=C(NCCc1cc(F)cc(F)c1)c1cccc(Nc2ncc(-c3ccccc3)cn2)c1", "test target": "human ANO6 (Homo sapiens, UniProt Q4KMQ2)", "recorded metric": "inhibition at 1 µM", "readout value": "< 30%"}
{"compound": "O=C(NCCc1ccccc1)c1cccc(Nc2ccc(-c3ccccc3)cn2)c1", "test target": "human ANO6 (Homo sapiens, UniProt Q4KMQ2)", "recorded metric": "inhibition at 1 µM", "readout value": "≥ 60%"}
{"compound": "N#CC1(NC(=O)c2cccc(Nc3ccc(-c4cccc(F)c4)nn3)c2)CC1", "test target": "human ANO6 (Homo sapiens, UniProt Q4KMQ2)", "recorded metric": "inhibition at 1 µM", "readout value": "30 to 60%"}
{"compound": "O=C(NCCCc1ccccc1)c1cccc(Nc2ccc(-c3ccc(F)cc3)nn2)c1", "test target": "human ANO6 (Homo sapiens, UniProt Q4KMQ2)", "recorded metric": "inhibition at 1 µM", "readout value": "< 30%"}
{"compound": "O=C(NCCc1ccccc1)c1cccc(Nc2ccc(-c3ccc(F)cc3)nn2)c1", "test target": "human ANO6 (Homo sapiens, UniProt Q4KMQ2)", "recorded metric": "inhibition at 1 µM", "readout value": "< 30%"}

The compound listed as Cc1ccc(CNC(=O)c2cccc(Nc3ccc(-c4ccccc4)nn3)c2)o1 shows inhibition at 1 µM equal to < 30%

The compound listed as Cc1c(C2CC2NC(=O)c2cccc(Nc3ncc(-c4cccc(F)c4)cn3)c2)cnn1C (centres unmarked) shows inhibition at 1 µM equal to < 30%

The compound listed as O=C(Nc1ccc2c(c1)OCO2)c1cccc(Nc2ncc(-c3cccc(F)c3)cn2)c1 shows inhibition at 1 µM equal to ≥ 60%

The compound listed as O=C(NCc1ccco1)c1cccc(Nc2ccc(-c3ccccc3)nn2)c1 shows inhibition at 1 µM equal to 30 to 60%

The compound listed as Cc1cc(CNC(=O)c2cccc(Nc3ccc(-c4ccccc4)nn3)c2)ccc1F shows inhibition at 1 µM equal to < 30%

The compound listed as O=C(NCC1CCCC1)c1cccc(Nc2ccc(-c3ccccc3)nn2)c1 shows inhibition at 1 µM equal to ≥ 60%

The compound listed as COc1cc(CNC(=O)c2cccc(Nc3ccc(-c4ccccc4)nn3)c2)ccc1F shows inhibition at 1 µM equal to < 30%

The compound listed as Cc1ccccc1CNC(=O)c1cccc(Nc2ccc(-c3ccc(F)cc3)nn2)c1 shows inhibition at 1 µM equal to < 30%

The compound listed as O=C(NCCCc1ccccc1)c1cccc(Nc2cnc(-c3ccccc3)cn2)c1 shows inhibition at 1 µM equal to < 30%

The compound listed as O=C(NCc1ccc(Cl)cc1)c1cccc(Nc2ccc(-c3ccccc3)nn2)c1 shows inhibition at 1 µM equal to 30 to 60%

The compound listed as COc1ccc([C@@H]2C[C@H]2NC(=O)c2cccc(Nc3ccc(-c4ccccc4)nn3)c2)cc1 shows inhibition at 1 µM equal to ≥ 60%

The compound listed as O=C(N[C@@H]1C[C@H]1c1ccccc1)c1ccnc(Nc2ccc(-c3ccccc3)cn2)c1 shows inhibition at 1 µM equal to ≥ 60%

###

- test target: human ANO6 (Homo sapiens, UniProt Q4KMQ2)
- Construct: expressed in transfected cells
- Sequence (Q4KMQ2 1-931 isoform Q4KMQ2-2): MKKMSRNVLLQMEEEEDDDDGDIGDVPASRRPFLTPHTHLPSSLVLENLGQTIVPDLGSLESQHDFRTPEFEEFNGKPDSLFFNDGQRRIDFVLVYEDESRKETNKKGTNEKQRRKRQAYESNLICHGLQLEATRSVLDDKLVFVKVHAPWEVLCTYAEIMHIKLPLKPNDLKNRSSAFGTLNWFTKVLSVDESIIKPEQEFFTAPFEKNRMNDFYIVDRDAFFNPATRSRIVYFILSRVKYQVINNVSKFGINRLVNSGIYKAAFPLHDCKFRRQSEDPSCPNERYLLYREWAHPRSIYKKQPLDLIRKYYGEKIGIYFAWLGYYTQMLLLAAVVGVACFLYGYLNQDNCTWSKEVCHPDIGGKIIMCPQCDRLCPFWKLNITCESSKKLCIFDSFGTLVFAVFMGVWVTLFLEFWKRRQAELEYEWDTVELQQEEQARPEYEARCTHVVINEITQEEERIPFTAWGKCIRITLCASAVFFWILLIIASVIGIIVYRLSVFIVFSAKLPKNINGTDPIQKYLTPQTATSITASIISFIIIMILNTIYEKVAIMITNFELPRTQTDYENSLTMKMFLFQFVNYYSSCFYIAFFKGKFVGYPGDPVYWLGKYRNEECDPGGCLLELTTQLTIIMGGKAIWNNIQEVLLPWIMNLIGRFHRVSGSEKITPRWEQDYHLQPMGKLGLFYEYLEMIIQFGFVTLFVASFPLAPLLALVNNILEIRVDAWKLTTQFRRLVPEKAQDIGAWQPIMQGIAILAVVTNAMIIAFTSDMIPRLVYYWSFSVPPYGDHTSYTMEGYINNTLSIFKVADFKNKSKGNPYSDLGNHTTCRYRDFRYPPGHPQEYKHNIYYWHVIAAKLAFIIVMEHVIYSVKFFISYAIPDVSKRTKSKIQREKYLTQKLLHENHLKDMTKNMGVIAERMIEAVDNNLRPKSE
- experimental details: YFP quenching assay (ANO6 ion channel activity)
- Assay type: cell-based
- details: test compound 30 μM, 10 μM ionomycin, read-out: Inhibition Level 30 μM
recorded metric: inhibition at 30 µM

Tested system human ANO6 (Homo sapiens, UniProt Q4KMQ2); inhibition at 30 µM recorded for Cc1ccc(-c2ccc(Nc3cccc(C(=O)NCc4ccc(F)cc4)c3)nn2)cc1 [Compound A23] was 30 to 60%

Tested system human ANO6 (Homo sapiens, UniProt Q4KMQ2); inhibition at 30 µM recorded for CCN(CCNC(=O)c1cccc(Nc2ccc(-c3ccccc3)nn2)c1)Cc1ccccc1 [Compound A41] was ≥ 60%

Tested system human ANO6 (Homo sapiens, UniProt Q4KMQ2); inhibition at 30 µM recorded for O=C(NC1CCC1)c1cccc(Nc2ccc(-c3ccccc3)nn2)c1 [Compound 25] was ≥ 60%

Tested system human ANO6 (Homo sapiens, UniProt Q4KMQ2); inhibition at 30 µM recorded for CC(C)CCNC(=O)c1cccc(Nc2ccc(-c3ccc(F)cc3)nn2)c1 [Compound A13] was ≥ 60%

Tested system human ANO6 (Homo sapiens, UniProt Q4KMQ2); inhibition at 30 µM recorded for COc1cccc(CNC(=O)c2cccc(Nc3ccc(-c4ccccc4)nn3)c2)c1 [Compound A76] was ≥ 60%

###

The following compounds are shown together with reported inhibition at 1 µM values.
- test target: human ANO6 (Homo sapiens, UniProt Q4KMQ2)
- Construct: expressed in transfected cells
- Sequence (Q4KMQ2 1-931 isoform Q4KMQ2-2): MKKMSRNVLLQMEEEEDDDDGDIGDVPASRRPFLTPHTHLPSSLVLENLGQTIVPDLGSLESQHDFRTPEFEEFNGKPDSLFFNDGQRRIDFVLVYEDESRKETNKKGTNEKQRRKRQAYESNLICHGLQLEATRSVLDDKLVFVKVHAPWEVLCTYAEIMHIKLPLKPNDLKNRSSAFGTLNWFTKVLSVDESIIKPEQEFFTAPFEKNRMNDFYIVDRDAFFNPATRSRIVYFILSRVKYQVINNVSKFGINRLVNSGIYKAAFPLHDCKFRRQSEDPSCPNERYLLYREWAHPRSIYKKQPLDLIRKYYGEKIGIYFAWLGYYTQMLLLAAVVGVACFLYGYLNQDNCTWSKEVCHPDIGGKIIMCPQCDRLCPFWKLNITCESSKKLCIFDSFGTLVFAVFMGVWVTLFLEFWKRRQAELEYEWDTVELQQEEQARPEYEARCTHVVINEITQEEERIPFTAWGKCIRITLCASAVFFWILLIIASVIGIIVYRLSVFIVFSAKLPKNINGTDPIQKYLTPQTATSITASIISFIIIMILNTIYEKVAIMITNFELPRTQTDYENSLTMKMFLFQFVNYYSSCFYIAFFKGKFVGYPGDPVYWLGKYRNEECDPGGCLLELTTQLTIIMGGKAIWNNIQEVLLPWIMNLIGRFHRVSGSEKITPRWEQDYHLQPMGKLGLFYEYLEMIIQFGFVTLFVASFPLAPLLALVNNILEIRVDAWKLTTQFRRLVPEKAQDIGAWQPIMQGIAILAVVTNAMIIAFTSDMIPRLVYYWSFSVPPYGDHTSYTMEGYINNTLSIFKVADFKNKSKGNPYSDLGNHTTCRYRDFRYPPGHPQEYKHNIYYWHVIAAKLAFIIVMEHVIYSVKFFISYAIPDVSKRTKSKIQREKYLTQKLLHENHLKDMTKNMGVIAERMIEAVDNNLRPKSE
- experimental details: YFP quenching assay (ANO6 ion channel activity)
- Format: cell-based
- details: test compound 1 μM, 10 μM ionomycin, read-out: Inhibition Level 1 μM

{"compound": "Cc1ccc(CNC(=O)c2cccc(Nc3ccc(-c4ccoc4)nn3)c2)o1 [Compound 7]", "inhibition at 1 µM": "≥ 60%"}
{"compound": "Cc1ccc(CNC(=O)c2cccc(Nc3ccc(-c4cccc(F)c4)cc3)c2)o1 [Compound 57]", "inhibition at 1 µM": "≥ 60%"}
{"compound": "O=C(NCCc1ccccc1)c1cccc(Nc2ccc(-c3ccc(F)cc3)nn2)c1 [Compound A4]", "inhibition at 1 µM": "≥ 60%"}
{"compound": "Cc1ccc(CNC(=O)c2cccc(Nc3ncc(-c4ccc(C)o4)cn3)c2)o1 [Compound 92]", "inhibition at 1 µM": "< 30%"}
{"compound": "CCN(CCNC(=O)c1cccc(Nc2ccc(-c3ccccc3)nn2)c1)Cc1ccccc1 [Compound A41]", "inhibition at 1 µM": "30 to 60%"}

The compound listed as O=C(NC1CCN(Cc2ccccc2)CC1)c1cccc(Nc2ncc(-c3ccccc3)cn2)c1 [Compound 120] shows inhibition at 1 µM equal to < 30%

The compound listed as Cc1ccc(CNC(=O)c2cccc(Nc3nccc(-c4ccccc4)n3)c2)o1 [Compound 89] shows inhibition at 1 µM equal to < 30%

The compound listed as COc1ccc(OC)c(CNC(=O)c2cccc(Nc3ccc(-c4ccccc4)nn3)c2)c1 [Compound A60] shows inhibition at 1 µM equal to 30 to 60%

The compound listed as O=C(NCCCc1ccccc1)c1cccc(Nc2cnc(-c3ccccc3)cn2)c1 [Compound 54] shows inhibition at 1 µM equal to ≥ 60%

The compound listed as Cc1ccc(-c2ccc(Nc3cccc(C(=O)NCC(C)C)c3)nn2)cc1 [Compound A33] shows inhibition at 1 µM equal to 30 to 60%

The compound listed as CN(CCNC(=O)c1cccc(Nc2ccc(-c3ccccc3)nn2)c1)Cc1ccccc1 [Compound 124] shows inhibition at 1 µM equal to 30 to 60%

The compound listed as CC(C)(C)CNC(=O)c1cccc(Nc2ccc(-c3ccccc3)nn2)c1 [Compound 24] shows inhibition at 1 µM equal to 30 to 60%

The compound listed as O=C(NCCc1ccncc1)c1cccc(Nc2ccc(-c3ccccc3)nn2)c1 [Compound 27] shows inhibition at 1 µM equal to 30 to 60%

The compound listed as O=C(N[C@@H]1C[C@H]1c1ccccc1)c1cccc(Nc2ccc(-c3ccccc3)cn2)c1 [Compound 115] shows inhibition at 1 µM equal to ≥ 60%

The compound listed as Cc1ccc(-c2ccc(Nc3cccc(C(=O)NCc4ccc(C)o4)c3)nn2)cc1 [Compound A7] shows inhibition at 1 µM equal to < 30%

The compound listed as O=C(NCCCc1ccccc1)c1cccc(Nc2ccc(-c3ccccc3)nn2)c1 [Compound A51] shows inhibition at 1 µM equal to ≥ 60%

The compound listed as O=C(NCCCc1ccccc1)c1cccc(Nc2ncc(-c3ccccc3)cn2)c1 [Compound 55] shows inhibition at 1 µM equal to ≥ 60%

The compound listed as Cc1ccccc1CNC(=O)c1cccc(Nc2ccc(-c3ccccc3)nn2)c1 [Compound A48] shows inhibition at 1 µM equal to ≥ 60%

The compound listed as Cc1ccc(CNC(=O)c2cccc(Nc3ncc(-c4cccc(F)c4)cn3)c2)o1 [Compound A20] shows inhibition at 1 µM equal to < 30%

The compound listed as Cc1ccc(CNC(=O)c2cccc(Nc3ccc(C4CCOCC4)nn3)c2)o1 [Compound 49] shows inhibition at 1 µM equal to < 30%

The compound listed as CC(C)c1ccc(CNC(=O)c2cccc(Nc3ccc(-c4ccc(F)cc4)nn3)c2)cc1 [Compound A36] shows inhibition at 1 µM equal to ≥ 60%

The compound listed as O=C(Nc1ccccc1)c1cccc(Nc2ccc(-c3ccccc3)nn2)c1 [Compound A89] shows inhibition at 1 µM equal to ≥ 60%

The compound listed as Cc1cccc(-c2ccc(Nc3cccc(C(=O)NCC(C)C)c3)nn2)c1 [Compound A32] shows inhibition at 1 µM equal to ≥ 60%
